- experimentalTarget: SMARCA4-HiBiT (Homo sapiens)
- Construct: SMARCA4-HiBiT knock-in Hela monoclonal cell (CS3023226); host or cells: HeLa monoclonal knock-in line (CRISPR HiBiT knock-in at the endogenous locus, heterozygous)
- Sequence (P51532 whole entry): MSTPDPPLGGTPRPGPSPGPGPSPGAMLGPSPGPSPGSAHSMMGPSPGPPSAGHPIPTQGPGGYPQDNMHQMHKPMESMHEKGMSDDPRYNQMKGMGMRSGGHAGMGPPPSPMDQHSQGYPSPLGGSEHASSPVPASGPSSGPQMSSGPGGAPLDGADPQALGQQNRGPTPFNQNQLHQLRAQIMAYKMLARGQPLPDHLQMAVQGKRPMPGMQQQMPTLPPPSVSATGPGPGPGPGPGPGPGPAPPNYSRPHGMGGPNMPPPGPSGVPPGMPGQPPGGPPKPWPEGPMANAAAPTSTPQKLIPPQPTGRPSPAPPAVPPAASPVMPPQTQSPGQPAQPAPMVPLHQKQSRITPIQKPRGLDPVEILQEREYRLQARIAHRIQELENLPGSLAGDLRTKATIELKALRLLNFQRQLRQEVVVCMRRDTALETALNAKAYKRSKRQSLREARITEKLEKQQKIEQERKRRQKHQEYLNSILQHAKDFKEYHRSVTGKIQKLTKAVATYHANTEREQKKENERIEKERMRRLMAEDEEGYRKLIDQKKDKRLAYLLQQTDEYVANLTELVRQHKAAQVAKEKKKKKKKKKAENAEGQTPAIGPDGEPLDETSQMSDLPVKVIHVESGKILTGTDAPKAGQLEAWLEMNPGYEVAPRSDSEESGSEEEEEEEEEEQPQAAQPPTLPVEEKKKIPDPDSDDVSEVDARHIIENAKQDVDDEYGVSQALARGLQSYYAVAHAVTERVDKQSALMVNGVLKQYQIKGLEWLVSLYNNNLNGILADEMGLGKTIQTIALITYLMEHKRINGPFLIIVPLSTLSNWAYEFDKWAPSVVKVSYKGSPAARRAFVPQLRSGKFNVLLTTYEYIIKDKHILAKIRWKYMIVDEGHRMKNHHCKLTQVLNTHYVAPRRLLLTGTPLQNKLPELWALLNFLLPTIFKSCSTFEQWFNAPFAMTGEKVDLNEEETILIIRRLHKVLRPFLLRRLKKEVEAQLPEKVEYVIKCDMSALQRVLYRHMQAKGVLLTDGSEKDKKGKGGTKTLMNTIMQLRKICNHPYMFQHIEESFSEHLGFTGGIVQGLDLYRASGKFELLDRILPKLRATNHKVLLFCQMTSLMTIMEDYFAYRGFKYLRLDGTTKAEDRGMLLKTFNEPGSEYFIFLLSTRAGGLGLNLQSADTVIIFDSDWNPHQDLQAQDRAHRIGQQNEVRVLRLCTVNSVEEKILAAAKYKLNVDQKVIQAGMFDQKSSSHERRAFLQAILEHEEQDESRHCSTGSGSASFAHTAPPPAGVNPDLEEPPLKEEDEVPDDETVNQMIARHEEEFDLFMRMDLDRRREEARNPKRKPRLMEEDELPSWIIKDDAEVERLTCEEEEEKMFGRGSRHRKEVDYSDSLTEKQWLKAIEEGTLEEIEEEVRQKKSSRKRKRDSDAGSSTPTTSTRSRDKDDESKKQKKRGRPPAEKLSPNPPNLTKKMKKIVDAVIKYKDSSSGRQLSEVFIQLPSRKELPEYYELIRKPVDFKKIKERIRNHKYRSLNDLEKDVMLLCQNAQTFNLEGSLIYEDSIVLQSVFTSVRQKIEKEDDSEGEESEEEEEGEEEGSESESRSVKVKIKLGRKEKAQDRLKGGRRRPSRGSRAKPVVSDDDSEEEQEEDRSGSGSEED
- assayInfo: SMARCA4 HiBiT degradation assay in HeLa cells
- Assay type: cell-based
- assayContext: HeLa, 18 hours incubation, read-out: HeLa-HiBit-SM4 Dmax (%)
readoutName: Dmax

Can you look up the measured Dmax of C[C@H]1CN(CC2CCN(c3ccc4c(c3)C(=O)N(C3CCC(=O)NC3=O)C4=O)CC2)CCN1C(=O)N1CCN2c3cc(-c4ccccc4O)nnc3NC[C@H]2C1 (stereo partly drawn) [Example 116] for me?
50 to 75%

Can you look up the measured Dmax of O=C1CCC(N2C(=O)c3ccc(Nc4cnn(CCN5CCC(N6CCN7c8cc(-c9ccccc9O)nnc8NC[C@H]7C6)CC5)c4)cc3C2=O)C(=O)N1 (stereo partly drawn) [Example 245] for me?
50 to 75%

Can you look up the measured Dmax of O=C1CCC(N2C(=O)c3ccc(N4[C@@H]5CC[C@H]4CC(CN4CCC(CN6CCN7c8cc(-c9ccccc9O)nnc8NC[C@H]7C6)CC4)C5)cc3C2=O)C(=O)N1 (stereo partly drawn) [Example 180] for me?
75 to 85%

Can you look up the measured Dmax of O=C1CCC(N2C(=O)c3ccc(N4C[C@@H]5[C@@H](CN6CCC(CN7CCN8c9cc(-c%10ccccc%10O)nnc9NC[C@H]8C7)CC6)[C@@H]5C4)cc3C2=O)C(=O)N1 (stereo partly drawn) [Example 154] for me?
50 to 75%

Can you look up the measured Dmax of O=C1CCC(N2C(=O)c3ccc(N4CCC(CN5CC6CC5CC6CN5CCN6c7cc(-c8ccccc8O)nnc7NC[C@H]6C5)CC4)cc3C2=O)C(=O)N1 (stereo partly drawn) [Example 136] for me?
> 85%

Can you look up the measured Dmax of CN(CCCN1CCN2c3cc(-c4ccccc4O)nnc3NC[C@H]2C1)CC1CCN(c2ccc3c(c2)C(=O)N(C2CCC(=O)NC2=O)C3=O)CC1 (stereo partly drawn) [Example 40] for me?
50 to 75%

Can you look up the measured Dmax of O=C1CCC(N2Cc3ccc(N4CCN(CCN5CCC(CN6CCN7c8cc(-c9ccccc9O)nnc8NC[C@H]7C6)CC5)CC4)cc3C2=O)C(=O)N1 (stereo partly drawn) [Example 119] for me?
> 85%

Can you look up the measured Dmax of O=C1CCC(N2C(=O)c3cccc(N4CCC(CCCN5CCC6(CCC(N7CCN8c9cc(-c%10ccccc%10O)nnc9NC[C@H]8C7)CC6)CC5)CC4)c3C2=O)C(=O)N1 (stereo partly drawn) [Example 72] for me?
50 to 75%

Can you look up the measured Dmax of C[C@H]1CN2c3cc(-c4ccccc4O)nnc3NC[C@H]2CN1C[C@H]1[C@@H]2CN(CC3CCN(c4ccc5c(c4)C(=O)N(C4CCC(=O)NC4=O)C5=O)CC3)C[C@@H]21 (stereo partly drawn) [Example 44] for me?
50 to 75%

Can you look up the measured Dmax of CCC1CN(CC2CCN(c3ccc4c(c3)C(=O)N(C3CCC(=O)NC3=O)C4=O)CC2)CCN1C(=O)N1CCN2c3cc(-c4ccccc4O)nnc3NC[C@H]2C1 (stereo partly drawn) [Example 269] for me?
50 to 75%

Can you look up the measured Dmax of O=C1CCC(N2C(=O)c3ccc(N4CC[C@H](CN5C[C@@H]6[C@H](C5)[C@H]6CN5CCN6c7cc(-c8ccccc8O)nnc7NC[C@H]6C5)[C@H](F)C4)cc3C2=O)C(=O)N1 (stereo partly drawn) [Example 186] for me?
50 to 75%

Can you look up the measured Dmax of O=C1CCC(N2Cc3ccc(C4CCN(CCN5CCC(N6CCN7c8cc(-c9ccccc9O)nnc8NC[C@H]7C6)CC5)CC4)cc3C2=O)C(=O)N1 (stereo partly drawn) [Example 118] for me?
> 85%

Can you look up the measured Dmax of O=C1CCC(N2C(=O)c3ccc(N4CCC(CN5C[C@@H]6[C@H](C5)[C@H]6CN5CCN6c7cc(-c8ccccc8O)nnc7NC[C@H]6C5)[C@@H](F)C4)cc3C2=O)C(=O)N1 (stereo in doubt) [Example 192] for me?
≤ 50%

Can you look up the measured Dmax of O=C1CCC(NC(=O)c2ccc(N3CCC(CN4CCC(N5CCN6c7cc(-c8ccccc8O)nnc7NC[C@H]6C5)CC4)CC3)cn2)C(=O)N1 (stereo partly drawn) [Example 24] for me?
75 to 85%

Can you look up the measured Dmax of O=C1CCC(N2C(=O)c3ccc(N4CCC(CN5CCN6c7cc(-c8ccccc8O)nnc7NC[C@H]6C5)CC4)cc3C2=O)C(=O)N1 (stereo partly drawn) [Example 157] for me?
50 to 75%

Hey, just so you know, these numbers are from patent US12448389B2.
